In what follows, each item is paired with its Ki for Cytosol aminopeptidase (Homo sapiens, UniProt P28838).
Only the number, expressed in µM, is required.

Example results:
{"compound": "CC(C)C[C@H](NC(=O)[C@@H](S)[C@H](N)Cc1ccccc1)C(=O)O", "value units": "µM", "Ki": 0.55}
{"compound": "CC(C)C[C@H](N)C(C)O (some centres undefined)", "value units": "µM", "Ki": 507}
{"compound": "COC(=O)C(S)[C@H](N)Cc1ccccc1 (some centres undefined)", "value units": "µM", "Ki": 300}

In the following, a different compound is considered.
input: Ki of CC(C)CC/N=C(\S)[C@@H](O)[C@H](N)Cc1ccccc1 on Cytosol aminopeptidase (Homo sapiens, UniProt P28838)?
output: 4.4

* * *

- target: Aminopeptidase N (Sus scrofa, UniProt P15145)
- Sequence (P15145 whole entry): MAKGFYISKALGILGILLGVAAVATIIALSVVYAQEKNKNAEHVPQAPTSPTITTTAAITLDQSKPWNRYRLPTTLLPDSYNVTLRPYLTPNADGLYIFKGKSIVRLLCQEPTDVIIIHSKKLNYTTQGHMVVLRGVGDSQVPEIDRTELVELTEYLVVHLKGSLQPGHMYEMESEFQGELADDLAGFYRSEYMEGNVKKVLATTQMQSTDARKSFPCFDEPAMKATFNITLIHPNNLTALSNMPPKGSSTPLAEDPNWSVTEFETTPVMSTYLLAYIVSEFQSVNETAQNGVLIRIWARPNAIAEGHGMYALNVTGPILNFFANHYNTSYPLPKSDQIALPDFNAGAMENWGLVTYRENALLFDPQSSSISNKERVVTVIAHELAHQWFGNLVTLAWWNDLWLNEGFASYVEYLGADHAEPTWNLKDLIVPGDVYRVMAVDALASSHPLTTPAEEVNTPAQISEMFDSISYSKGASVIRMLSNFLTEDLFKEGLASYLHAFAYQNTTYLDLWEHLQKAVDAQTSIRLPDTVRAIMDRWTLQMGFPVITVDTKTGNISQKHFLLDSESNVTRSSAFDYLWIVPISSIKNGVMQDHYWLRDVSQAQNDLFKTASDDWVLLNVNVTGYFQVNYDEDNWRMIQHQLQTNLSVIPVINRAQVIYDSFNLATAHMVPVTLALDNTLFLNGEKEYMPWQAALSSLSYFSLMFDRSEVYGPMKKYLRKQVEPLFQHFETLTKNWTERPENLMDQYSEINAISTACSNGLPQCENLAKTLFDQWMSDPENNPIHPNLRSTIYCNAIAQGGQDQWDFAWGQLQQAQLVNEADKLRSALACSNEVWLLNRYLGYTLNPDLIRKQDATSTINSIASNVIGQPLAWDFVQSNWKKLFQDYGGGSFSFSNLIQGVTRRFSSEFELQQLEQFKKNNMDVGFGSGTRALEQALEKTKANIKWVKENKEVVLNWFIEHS
- method notes: Inhibitory activity against Aminopeptidase M
pKi: −log10 of the molar value.
// no strictly below 4 in pKi; yes otherwise

Solved entries:
{"molecule": "CC(C)C[C@H](/N=C(\\S)[C@@H](O)[C@H](N)Cc1ccccc1)C(=O)O", "label": "yes"}
{"molecule": "CC(C)CCNC(=O)[C@@H](S)[C@H](N)Cc1ccccc1", "label": "yes"}
{"molecule": "CC(C)CCNC(=O)[C@@H](O)[C@H](N)Cc1ccccc1", "label": "yes"}
{"molecule": "CC(C)C[C@@H](N)CO", "label": "no"}
{"molecule": "COC(=O)C(S)[C@H](N)Cc1ccccc1 (stereo partly drawn)", "label": "no"}
{"molecule": "CC(C)C[C@H](N)C(C)O (stereo partly drawn)", "label": "no"}
{"molecule": "CC(C)C[C@H](NC(=O)[C@@H](S)[C@H](N)Cc1ccccc1)C(=O)O", "label": "yes"}

input: Is the recorded value of pKi equal to or greater than 4 for this molecule? CC(C)C[C@H](N)C(C)S (stereo partly drawn)
output: yes

* * *

- target: Aminopeptidase B (Rattus norvegicus, UniProt O09175)
- Sequence (O09175 whole entry): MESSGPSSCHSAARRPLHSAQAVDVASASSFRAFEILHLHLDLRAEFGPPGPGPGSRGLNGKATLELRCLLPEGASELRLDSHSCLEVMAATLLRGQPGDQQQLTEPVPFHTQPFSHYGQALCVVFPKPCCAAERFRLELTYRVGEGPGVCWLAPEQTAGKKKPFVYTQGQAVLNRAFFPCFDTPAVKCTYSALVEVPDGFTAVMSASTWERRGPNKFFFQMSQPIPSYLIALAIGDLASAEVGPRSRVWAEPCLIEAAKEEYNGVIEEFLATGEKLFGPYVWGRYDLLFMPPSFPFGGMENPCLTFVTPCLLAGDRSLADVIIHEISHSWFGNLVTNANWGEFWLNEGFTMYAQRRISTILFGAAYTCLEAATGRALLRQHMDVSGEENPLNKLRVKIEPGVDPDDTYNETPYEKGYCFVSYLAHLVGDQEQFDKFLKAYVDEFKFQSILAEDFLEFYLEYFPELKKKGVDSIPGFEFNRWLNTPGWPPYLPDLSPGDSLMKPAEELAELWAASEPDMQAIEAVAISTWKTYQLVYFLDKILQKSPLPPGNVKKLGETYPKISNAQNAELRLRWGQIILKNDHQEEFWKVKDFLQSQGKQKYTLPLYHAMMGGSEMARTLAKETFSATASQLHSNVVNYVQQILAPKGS
endpoint label: pKi
As a rule, pKi stands for the negative log10 of the concentration, concentration in M.

{"compound": "CC(C)CCNC(=O)[C@@H](S)[C@H](N)Cc1ccccc1", "target": "Aminopeptidase B (Rattus norvegicus, UniProt O09175)", "value reported": 5.40}
{"compound": "NCCCC[C@@H](N)CS", "target": "Aminopeptidase B (Rattus norvegicus, UniProt O09175)", "value reported": 9.04}
{"compound": "NCCCC[C@@H](N)CO", "target": "Aminopeptidase B (Rattus norvegicus, UniProt O09175)", "value reported": 4.00}

input: What value of pKi has been reported for the following compound? COC(=O)C(S)[C@H](N)Cc1ccccc1 (stereo partly drawn)
output: 3.80

input: Now consider CC(C)CCNC(=O)[C@@H](O)[C@H](N)Cc1ccccc1 .
output: 4.41

input: Subsequent entry: CC(C)C[C@H](/N=C(\S)[C@@H](O)[C@H](N)Cc1ccccc1)C(=O)O
output: 5.62
